Tested on: phosphorylation of Chk1 (Ser 345) in HT29 colon adenocarcinoma cells
Experiment: pCHK1 cellular assay
Format: cell-based
Conditions: Homo sapiens, HT-29, hydroxyurea 3 mM, 4 h
Text: Chk1 kinase acts downstream of ATR and has a key role in DNA damage checkpoint control. Activation of Chk1 involves phosphorylation of Ser317 and Ser345 (regarded as the preferential target for phosphorylation/activation by ATR) and occurs in response to blocked DNA replication and certain forms of genotoxic stress. […] The nuclear localised pChk1 signal is detected on an ImageXpress Ultra confocal high content reader and reported as % positive cells (nuclei).
pIC50: −log10 of the molar value.
Consider the following compounds and their measured pIC50 readings.

Worked examples, 3 compounds total:
The reported pIC50 of the compound `C[C@@H]1COCCN1c1ccc2c(n1)c(-c1cc[nH]n1)nn2C(C)(C)CO` was 5.00 to 6.00

Recorded pIC50 (compound `Cc1cc(-c2n[nH]c3c(-c4ccc(S(C)(=O)=O)nc4C)cc(N4CCOC[C@H]4C)nc23)[nH]n1` ): 6.00 to 7.00

pIC50 reading for `Cc1nc(S(C)(=O)=O)ccc1-c1cc(N2CCOC[C@H]2C)nc2c(-c3cc[nH]n3)nn(C)c12` : 7.00 to 8.00

Pending compound:
The reported pIC50 of the compound `C[C@@H]1COCCN1c1cc([C@@H]2CCOC2)c2c(n1)c(-c1ccn[nH]1)nn2C` was 7.00 to 8.00

---

biological target: Kv11.1 (hERG) ion channel (Homo sapiens (Human), UniProt Q12809); experiment: Kv11.1 (hERG) ion channel activity, whole cell patch clamp in HEK293; assay type: cell-based; conditions: @ 10 μM
Sequence (Q12809 whole entry): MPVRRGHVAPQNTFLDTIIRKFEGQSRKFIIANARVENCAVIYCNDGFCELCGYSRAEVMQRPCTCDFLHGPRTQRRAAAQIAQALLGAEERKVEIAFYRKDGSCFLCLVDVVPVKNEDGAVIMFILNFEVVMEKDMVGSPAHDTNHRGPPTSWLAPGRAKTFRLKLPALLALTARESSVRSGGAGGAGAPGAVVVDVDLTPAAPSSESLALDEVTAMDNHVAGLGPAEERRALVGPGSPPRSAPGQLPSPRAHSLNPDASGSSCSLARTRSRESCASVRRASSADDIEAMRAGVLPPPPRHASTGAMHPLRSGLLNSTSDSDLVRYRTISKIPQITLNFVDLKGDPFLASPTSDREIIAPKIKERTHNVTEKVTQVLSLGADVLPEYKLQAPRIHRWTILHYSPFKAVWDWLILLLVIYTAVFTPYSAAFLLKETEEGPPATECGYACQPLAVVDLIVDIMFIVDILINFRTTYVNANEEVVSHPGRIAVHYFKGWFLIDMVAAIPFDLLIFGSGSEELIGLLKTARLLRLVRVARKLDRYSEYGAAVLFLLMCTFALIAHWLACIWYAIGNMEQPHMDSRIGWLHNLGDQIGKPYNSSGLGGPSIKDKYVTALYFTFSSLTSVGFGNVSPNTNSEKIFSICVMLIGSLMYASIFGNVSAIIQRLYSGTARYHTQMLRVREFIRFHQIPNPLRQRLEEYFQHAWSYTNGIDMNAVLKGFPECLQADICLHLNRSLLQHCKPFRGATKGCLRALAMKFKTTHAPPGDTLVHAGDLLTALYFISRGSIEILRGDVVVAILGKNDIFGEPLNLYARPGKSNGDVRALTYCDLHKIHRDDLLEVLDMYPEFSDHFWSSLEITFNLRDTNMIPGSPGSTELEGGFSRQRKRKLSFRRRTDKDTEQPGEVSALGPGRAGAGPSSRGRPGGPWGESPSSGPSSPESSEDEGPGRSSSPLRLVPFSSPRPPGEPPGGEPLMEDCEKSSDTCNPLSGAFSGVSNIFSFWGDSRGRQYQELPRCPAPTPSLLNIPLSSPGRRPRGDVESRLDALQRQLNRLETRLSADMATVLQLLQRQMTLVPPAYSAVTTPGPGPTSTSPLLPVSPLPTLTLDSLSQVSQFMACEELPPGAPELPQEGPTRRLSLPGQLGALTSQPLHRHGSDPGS
Reported hERG % effect @ conc values for a set of compounds
Use % as the unit, but write only the number.

Recorded results for 5 compounds are shown here.
Value of hERG % effect @ conc reported for the compound `Cc1nc(S(C)(=O)=O)ccc1-c1cc(N2CCOC[C@H]2C)nc2c(-c3cc[nH]n3)nn(C)c12` is −5

Query `C[C@@H]1COCCN1c1cc(C2=CCOCC2)c2c(n1)c(-c1cc[nH]n1)nn2C` yields hERG % effect @ conc of −2

According to the records, this compound `Cc1ncccc1-c1cc(N2CCOC[C@H]2C)nc2c(-c3cc[nH]n3)nn(C)c12` displays hERG % effect @ conc of −12

Looking up `C[C@@H]1COCCN1c1ccc2c(n1)c(-c1ccn[nH]1)nn2C` , I found its hERG % effect @ conc recorded as 9

The compound identified as `Cc1cc(S(C)(=O)=O)ccc1-c1cc(N2CCOC[C@H]2C)nc2c(-c3cc[nH]n3)nn(C)c12` registered its hERG % effect @ conc at −17

***
Lab note: `CC(C)n1cc(-c2cc(N3CCOC[C@H]3C)nc3c(-c4cc[nH]n4)nn(C)c23)cn1` gave hERG % effect @ conc of −14

Measured hERG % effect @ conc of `Cc1ccccc1-c1cc(N2CCOC[C@H]2C)nc2c(-c3cc[nH]n3)n[nH]c12` : −23

Briefly, hERG % effect @ conc measured for `Cc1nn(C)cc1-c1cc(N2CCOC[C@H]2C)nc2c(-c3cc[nH]n3)nn(C)c12` : −6

Value of hERG % effect @ conc reported for the compound `C[C@@H]1COCCN1c1cc(-c2ccnc3[nH]ccc23)c2c(n1)c(-c1cc[nH]n1)nn2C` is −24

The measured hERG % effect @ conc associated with `C[C@@H]1COCCN1c1cc(-c2cccc(C#N)c2)c2c(n1)c(-c1cc[nH]n1)nn2C` reads −32

Value of hERG % effect @ conc reported for the compound C[C@@H]1COCCN1c1cc(C2CCOC2)c2c(n1)c(-c1ccn[nH]1)nn2C (stereo partly shown) is −20

The recorded hERG % effect @ conc for `C[C@@H]1COCCN1c1cc([C@@H]2CCOC2)c2c(n1)c(-c1ccn[nH]1)nn2C` is −16

For this compound ( `C[C@@H]1COCCN1c1cc(C(C)(C)O)c2c(n1)c(-c1cc[nH]n1)nn2C` ), measured hERG % effect @ conc is −1

Form: compound = `Cc1ccc(-c2cc(N3CCOC[C@H]3C)nc3c(-c4cc[nH]n4)n[nH]c23)cn1` ; hERG % effect @ conc = −3

The compound listed as `C[C@@H]1COCCN1c1cc(-c2ccnn2CCF)c2c(n1)c(-c1cc[nH]n1)nn2C` has a reported hERG % effect @ conc of −9

// hERG % effect @ conc value for Cc1nc([S+](C)[O-])ccc1-c1cc(N2CCOC[C@H]2C)nc2c(-c3cc[nH]n3)nn(C)c12 (stereo partly shown) : −6
